# Adenosine receptor A3 (Homo sapiens): AC50 values follow; also: assay procedure not described here
# Sequence (P0DMS8 whole entry): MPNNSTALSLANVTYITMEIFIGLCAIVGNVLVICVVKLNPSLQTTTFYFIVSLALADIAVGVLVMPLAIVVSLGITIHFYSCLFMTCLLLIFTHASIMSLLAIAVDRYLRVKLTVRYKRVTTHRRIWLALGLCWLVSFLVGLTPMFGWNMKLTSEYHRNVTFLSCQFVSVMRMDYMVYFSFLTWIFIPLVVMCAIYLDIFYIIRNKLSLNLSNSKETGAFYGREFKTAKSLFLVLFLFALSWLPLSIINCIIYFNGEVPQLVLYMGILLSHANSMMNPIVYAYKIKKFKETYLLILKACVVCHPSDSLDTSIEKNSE

INSERT INTO assay_data (molecule, quantity_measured, experimental_value) VALUES
  ('[H]/N=C(/N)N/C(=N/[H])NCCc1ccccc1 [PHENFORMIN]', 'AC50', '> 30 µM');

# query: AC50 | item CC(C)Cc1ccc(C(C)C(=O)O)cc1 (configuration not stated) [IBUPROFEN] | system: Adenosine receptor A3 (Homo sapiens) > 30 µM

Moving on to the next molecule: CO[C@H]1/C=C/O[C@@]2(C)Oc3c(C)c(O)c4c(O)c(c(/C=N/N5CCN(C)CC5)c(O)c4c3C2=O)NC(=O)/C(C)=C\C=C\[C@H](C)[C@H](O)[C@@H](C)[C@@H](O)[C@@H](C)[C@H](OC(C)=O)[C@@H]1C [RIFAMPIN] 27 µM

Moving on to the next molecule: NC1CCN(c2nc3c(cc2F)c(=O)c(C(=O)O)cn3-c2ccc(F)cc2F)C1 (configuration not stated) [TOSUFLOXACIN] > 30 µM

###

# UniProt:P30411: AC50 values follow
# Sequence (P30411 whole entry): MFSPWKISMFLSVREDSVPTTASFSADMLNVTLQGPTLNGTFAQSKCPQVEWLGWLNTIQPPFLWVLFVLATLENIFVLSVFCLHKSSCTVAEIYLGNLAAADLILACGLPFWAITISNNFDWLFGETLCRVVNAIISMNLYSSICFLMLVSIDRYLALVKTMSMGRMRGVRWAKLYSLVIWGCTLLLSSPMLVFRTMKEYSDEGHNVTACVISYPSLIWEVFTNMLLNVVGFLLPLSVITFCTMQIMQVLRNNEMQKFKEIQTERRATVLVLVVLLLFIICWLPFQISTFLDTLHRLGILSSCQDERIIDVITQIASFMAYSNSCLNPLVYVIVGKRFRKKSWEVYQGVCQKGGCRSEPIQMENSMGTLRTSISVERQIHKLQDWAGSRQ

INSERT INTO measurements (molecule, quantity_measured, experimental_value) VALUES
  ('Cc1noc(NS(=O)(=O)c2ccc(N)cc2)c1C [SULFISOXAZOLE]', 'AC50', '> 10 µM');

# query: AC50 | item CCN(CC)CCNC(=O)c1c(C)[nH]c(/C=C2\C(=O)Nc3ccc(F)cc32)c1C [SUNITINIB] | system: UniProt:P30411 2.5 µM

Moving on to the next molecule: CC12CC3CC(C)(C1)CC(N)(C3)C2 [MEMANTINE] > 30 µM

Moving on to the next molecule: CC(N)C12CC3CC(CC(C3)C1)C2 (centres undefined) [RIMANTADINE] > 10 µM

Moving on to the next molecule: C=C[C@H]1C[N@@]2CC[C@H]1C[C@@H]2[C@@H](O)c1ccnc2ccc(OC)cc12 [QUINIDINE] > 30 µM

Moving on to the next molecule: CC(C)Cc1ccc(C(C)C(=O)O)cc1 (centres undefined) [IBUPROFEN] > 30 µM

Moving on to the next molecule: Cn1c(=O)cc(N2CCC[C@@H](N)C2)n(Cc2ccccc2C#N)c1=O [ALOGLIPTIN] > 30 µM

Moving on to the next molecule: CCCCC(=O)O[C@]1(C(=O)CO)[C@@H](C)C[C@H]2[C@@H]3CCC4=CC(=O)C=C[C@]4(C)[C@@]3(F)[C@@H](O)C[C@@]21C [BETAMETHASONE VALERATE] > 30 µM

Moving on to the next molecule: CC(C(=O)O)c1ccc(CC2CCCC2=O)cc1 (centres undefined) [LOXOPROFEN] > 30 µM

###

- Measured target: Prostaglandin G/H synthase 1 (Homo sapiens); also: assay procedure not described here
- Sequence (P23219 whole entry): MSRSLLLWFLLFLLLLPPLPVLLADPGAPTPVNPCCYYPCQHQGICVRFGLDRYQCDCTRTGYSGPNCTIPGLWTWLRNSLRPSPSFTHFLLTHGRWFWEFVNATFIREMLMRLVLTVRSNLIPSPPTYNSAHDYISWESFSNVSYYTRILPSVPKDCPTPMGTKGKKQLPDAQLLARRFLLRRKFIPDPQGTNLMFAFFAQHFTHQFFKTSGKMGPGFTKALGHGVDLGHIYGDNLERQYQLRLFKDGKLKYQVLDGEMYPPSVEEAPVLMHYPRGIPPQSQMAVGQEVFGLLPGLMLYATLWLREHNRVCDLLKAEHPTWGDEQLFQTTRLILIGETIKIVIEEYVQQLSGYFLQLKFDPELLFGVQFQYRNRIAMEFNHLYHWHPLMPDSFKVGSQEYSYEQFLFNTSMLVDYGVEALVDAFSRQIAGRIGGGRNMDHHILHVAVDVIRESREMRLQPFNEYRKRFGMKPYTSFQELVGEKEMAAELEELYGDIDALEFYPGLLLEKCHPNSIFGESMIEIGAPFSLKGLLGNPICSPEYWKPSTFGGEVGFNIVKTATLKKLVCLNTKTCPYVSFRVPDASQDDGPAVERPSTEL
- Assay type: functional
Catalogue of AC50 values

// worked examples, AC50 included
INSERT INTO results (compound, quantity_measured, experimental_value) VALUES
  ('CC(C)N(CCNC(=O)CN1CCCC1=O)C(C)C', 'AC50', '> 30 µM'),
  ('O=C(O)CO', 'AC50', '> 30 µM'),
  ('CC(CN1CC(=O)NC(=O)C1)N1CC(=O)NC(=O)C1 (configuration not stated)', 'AC50', '> 3 µM'),
  ('Cc1cc(N)c2ccccc2[n+]1CCCCCCCCCC[n+]1c(C)cc(N)c2ccccc21', 'AC50', '14.8 µM'),
  ('CCn1cc(C(=O)O)c(=O)c2cc3c(cc21)OCO3', 'AC50', '> 30 µM'),
  ('CC(=O)O[C@]1(C(C)=O)CC[C@H]2[C@@H]3C=C(C)C4=CC(=O)CC[C@@H]4[C@H]3CC[C@@]21C [NOMEGESTROL ACETATE]', 'AC50', '> 30 µM');

Please give the measured AC50 for this compound: CCCC(CCC)C(=O)O > 30 µM

Moving on to the next compound: FC(F)(F)c1ccc(CNc2ccc(Cc3c[nH]c4ncc(Cl)cc34)cn2)cn1 > 30 µM

Moving on to the next compound: CCc1nc(C(N)=O)c(Nc2ccc(N3CCC(N4CCN(C)CC4)CC3)c(OC)c2)nc1NC1CCOCC1 > 30 µM

Moving on to the next compound: CC[C@H](c1ccc(O)cc1)[C@@H](CC)c1ccc(O)cc1 16.4 µM

Moving on to the next compound: NCC(CC(=O)O)c1ccccc1 (configuration not stated) > 30 µM

Moving on to the next compound: CCC(=O)O[C@]1(C(=O)SCF)[C@H](C)C[C@H]2[C@@H]3C[C@H](F)C4=CC(=O)C=C[C@]4(C)[C@@]3(F)[C@@H](O)C[C@@]21C [FLUTICASONE PROPIONATE] > 30 µM

###

- Measured target: Muscarinic acetylcholine receptor M1 (Homo sapiens, UniProt P11229); also: assay procedure not described here
- Sequence (P11229 whole entry): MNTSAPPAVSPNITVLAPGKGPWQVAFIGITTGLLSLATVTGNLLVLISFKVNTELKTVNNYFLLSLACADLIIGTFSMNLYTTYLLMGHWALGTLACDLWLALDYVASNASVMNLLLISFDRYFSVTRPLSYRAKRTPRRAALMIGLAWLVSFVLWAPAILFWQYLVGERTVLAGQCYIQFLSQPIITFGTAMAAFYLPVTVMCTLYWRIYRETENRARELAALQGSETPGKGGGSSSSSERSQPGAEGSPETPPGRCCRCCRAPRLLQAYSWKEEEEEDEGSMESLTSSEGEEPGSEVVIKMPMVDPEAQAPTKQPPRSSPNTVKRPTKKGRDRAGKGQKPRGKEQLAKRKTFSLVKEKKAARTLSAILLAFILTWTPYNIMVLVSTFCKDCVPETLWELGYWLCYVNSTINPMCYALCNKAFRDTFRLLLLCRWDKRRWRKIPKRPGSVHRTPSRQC
- Format: functional
Quantity measured: AC50

INSERT INTO measurements (compound, measured_target, experimental_value) VALUES
  ('CCC(=O)O[C@H]1CC[C@H]2[C@@H]3CCC4=CC(=O)CC[C@]4(C)[C@H]3CC[C@]12C [TESTOSTERONE PROPIONATE]', 'Muscarinic acetylcholine receptor M1 (Homo sapiens, UniProt P11229)', '> 10 µM'),
  ('CC(C)COCC(CN(Cc1ccccc1)c1ccccc1)N1CCCC1 (configuration not stated) [BEPRIDIL]', 'Muscarinic acetylcholine receptor M1 (Homo sapiens, UniProt P11229)', '23 µM');

Please give the measured AC50 for this compound: C#C[C@]1(OC(C)=O)CC[C@H]2[C@@H]3CCC4=C/C(=N/O)CC[C@@H]4[C@H]3CC[C@@]21CC [NORGESTIMATE] > 30 µM

Moving on to the next compound: C[C@]12C=CC(=O)N[C@@H]1CC[C@@H]1[C@@H]2CC[C@]2(C)[C@@H](C(=O)Nc3cc(C(F)(F)F)ccc3C(F)(F)F)CC[C@@H]12 [DUTASTERIDE] > 10 µM

Moving on to the next compound: C=C1/C(=C\C=C2/CCC[C@]3(C)[C@@H]([C@H](C)/C=C/[C@@H](O)C4CC4)CC[C@@H]23)C[C@@H](O)C[C@@H]1O [CALCIPOTRIENE] > 30 µM

Moving on to the next compound: CCOC(=O)c1cncn1[C@H](C)c1ccccc1 [ETOMIDATE] > 10 µM

Moving on to the next compound: CC1=C(C)C(=O)C(C(CCCCCC(=O)O)c2ccccc2)=C(C)C1=O (configuration not stated) [SERATRODAST] > 30 µM

###

- Measured target: Equilibrative nucleoside transporter 1 (Homo sapiens, UniProt Q99808); also: assay procedure not described here
- Sequence (Q99808 whole entry): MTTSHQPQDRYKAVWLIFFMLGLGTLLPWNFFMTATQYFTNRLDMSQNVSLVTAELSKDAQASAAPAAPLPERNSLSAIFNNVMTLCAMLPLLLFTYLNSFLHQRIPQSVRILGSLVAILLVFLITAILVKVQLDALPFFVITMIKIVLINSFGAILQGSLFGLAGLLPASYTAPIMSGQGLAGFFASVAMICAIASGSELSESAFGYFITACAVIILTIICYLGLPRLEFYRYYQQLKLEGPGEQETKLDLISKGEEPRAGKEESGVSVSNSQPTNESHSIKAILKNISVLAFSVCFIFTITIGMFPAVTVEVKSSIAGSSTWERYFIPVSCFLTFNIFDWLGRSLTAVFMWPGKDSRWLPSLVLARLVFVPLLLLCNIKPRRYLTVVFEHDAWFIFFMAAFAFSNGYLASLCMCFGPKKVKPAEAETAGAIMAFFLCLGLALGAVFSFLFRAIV
Catalogue of AC50 values

INSERT INTO measurements (compound, quantity_measured, experimental_value) VALUES
  ('Cn1cnc2c(F)c(Nc3ccc(Br)cc3Cl)c(C(=O)NOCCO)cc21 [SELUMETINIB]', 'AC50', '> 30 µM'),
  ('C[C@H](CCC(=O)O)[C@H]1CC[C@H]2[C@@H]3[C@@H](O)C[C@@H]4C[C@H](O)CC[C@]4(C)[C@H]3CC[C@]12C [URSODIOL]', 'AC50', '> 30 µM'),
  ('CCC(=O)O[C@H]1CC[C@H]2[C@@H]3CCC4=CC(=O)CC[C@]4(C)[C@H]3CC[C@]12C [TESTOSTERONE PROPIONATE]', 'AC50', '> 10 µM'),
  ('COc1ccc2nc3cc(Cl)ccc3c(Nc3cc(CN4CCCC4)c(O)c(CN4CCCC4)c3)c2n1 [PYRONARIDINE]', 'AC50', '21 µM'),
  ('O=C(O)CCNC(=O)c1ccccc1 [BETAMIPRON]', 'AC50', '> 30 µM');

Next item in the queue.
Please give the measured AC50 for this compound: CC(C)[C@H](N)C(=O)OCC(CO)OCn1cnc2c(=O)nc(N)[nH]c21 (stereo partly specified) [VALGANCICLOVIR] > 30 µM

Entry source: ChEMBL document CHEMBL5291721
